Parameter viability: see the listing below.
# protocolText: reversal of MRP1-mediated doxorubicin resistance, pilot screen, H69AR cells, doxorubicin co-treatment (AID 601)
# conditionDetails: H69AR cells + 2 uM doxorubicin, CellTiter-Glo, 72 h; measured here: viability with 2 uM doxorubicin; at 10 µM; stronger effect = lower value
Supply the numeric figure in %, leaving out any unit text.

Examples with answers:
In: Please look up its viability: CCc1nc(SCC(=O)NCc2ccco2)c2c3c(sc2n1)CCCC3
Out: 77.1

In: Next up: Cc1csc(NC(=O)c2cccs2)n1
Out: 85.8

In: Next up: O=S(CC(O)COCc1ccc(Cl)cc1)c1ccccn1 (stereo unspecified)
Out: 91.5

In: Next up: COc1ccc(C2/C(=C(/O)c3ccc(OC(C)C)cc3)C(=O)C(=O)N2CCCN2CCOCC2)cc1 (stereo unspecified)
Out: 105

In: Next up: Cc1ccc(S(=O)(=O)N2CCN(C(=O)c3cc(=O)[nH]c4ccccc34)CC2)c(C)c1
Out: 79.8

--- query ---
In: Please look up its viability: O=C(/C=C/c1ccccc1)c1ccccc1
Out: 4.56

* * *

# protocolText: 384-well plate pilot, post-Golgi transport modulator project, inhibition of yeast transport mutant growth (AID 636)
# conditionDetails: absorbance 615 nm, about 18 h, stronger effect = higher value
Parameter inhibition: see the listing below.
Supply the numeric figure in %, leaving out any unit text.

Examples with answers:
In: Please look up its inhibition: O=C(CCn1c(=O)c2sccc2n(CC(=O)NCc2ccco2)c1=O)NCc1ccccc1
Out: -0.65

In: Next up: CC(CN(C)Cc1ccccc1)OC(=O)c1ccc2c(c1)OCCO2 (stereo unspecified)
Out: -7.67

In: Next up: O=C(NCCCN1CCCC1=O)C1CCN(S(=O)(=O)N2CCOCC2)CC1
Out: 5.41

Others:
In: Please look up its inhibition: CC(Cc1ccc(O)c(O)c1)C(C)Cc1ccc(O)c(O)c1 (stereo unspecified)
Out: -5.45

In: Next up: CC(=O)c1ccc(NC(=O)c2cc(CC(C)C)on2)cc1
Out: 6.15

In: Next up: O=C(NCC(=O)N(CCc1ccccc1)C(C(=O)NC1CCCC1)c1cccnc1)c1ccco1 (stereo unspecified)
Out: -2.24

* * *

# protocolText: reducers of endogenous Her2 protein level, primary screen, SKBR3 breast tumor cells, AlphaScreen, ATP viability (AID 461);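 further: percent of carrier control wells set as 100% viability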
# conditionDetails: 18-24 h, measured here: SKBR3 viability, ATP luminescence, at 10 µM
Parameter viability: see the listing below.
Supply the numeric figure in %, leaving out any unit text.

In: Please look up its viability: CCCCOC(=O)Cn1c(=N)n(CCN2CCOCC2)c2ccccc21
Out: 77

In: Next up: O=C(NCc1ccccn1)c1ccc2nc(-c3ccco3)c(-c3ccco3)nc2c1
Out: 101

In: Next up: C=CCn1c(SCC(=O)Nc2cccc(OC)c2)nnc1-c1cccnc1
Out: 92.5

In: Next up: Nc1ncnc2oc(-c3ccco3)c(-c3ccco3)c12
Out: 96.5

In: Next up: CCOc1ccccc1-n1nnnc1SCC(=O)Nc1cc2oc3ccccc3c2cc1OC
Out: 68.5

In: Next up: Cn1c(=O)c2c(-c3ccncc3)c3c(nc2n(C)c1=O)-c1ccccc1C3=O
Out: 94

* * *

Parameter viability: see the listing below.
# protocolText: reversal of MRP1-mediated doxorubicin resistance, pilot screen, H69AR cells, doxorubicin co-treatment (AID 601)
# conditionDetails: H69AR cells, CellTiter-Glo, 72 h; compound alone cytotoxicity; at 10 µM
Write down the value, and be sure its unit follows.

In: Please look up its viability: O=C(Nc1ccc(SC(F)F)cc1)c1ccc2nccnc2c1
Out: 92.1%

In: Next up: COc1ccc(Cn2nnnc2C(c2ccncc2)N2CCOCC2)cc1 (centres undefined)
Out: 94.7%

In: Next up: Cc1cc(C)n(C(=O)CCCCCC(=O)n2nc(C)cc2C)n1
Out: 105%
